TEST SYSTEM: GLUT1 (Homo sapiens)
Construct: endogenous in cells
Sequence (P11166 1-492): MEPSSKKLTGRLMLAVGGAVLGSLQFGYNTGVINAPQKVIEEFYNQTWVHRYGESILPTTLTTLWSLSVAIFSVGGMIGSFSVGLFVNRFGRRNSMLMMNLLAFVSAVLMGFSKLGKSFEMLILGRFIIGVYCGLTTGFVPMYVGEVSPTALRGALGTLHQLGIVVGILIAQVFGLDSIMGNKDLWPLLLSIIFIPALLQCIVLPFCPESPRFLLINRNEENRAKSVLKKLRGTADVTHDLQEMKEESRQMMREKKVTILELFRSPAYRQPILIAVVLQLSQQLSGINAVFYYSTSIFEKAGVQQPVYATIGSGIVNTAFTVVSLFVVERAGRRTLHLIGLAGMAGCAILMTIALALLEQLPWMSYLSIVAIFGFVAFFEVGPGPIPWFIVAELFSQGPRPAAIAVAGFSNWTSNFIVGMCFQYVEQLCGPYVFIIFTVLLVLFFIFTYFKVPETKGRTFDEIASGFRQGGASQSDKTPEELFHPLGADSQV
PROCEDURE DETAILS: Indirect measurement of GLUT activity by quantification of intracellular ATP levels: glucose induced ATP increase (GLUT1 inhibition)
CONDITION NOTES: DLD1 cells; 1 mM glucose, 1 uM Rotenone, 15 min; CellTiter-Glo ATP levels; IC50 values standardized to cytochalasin B IC50 values; read-out: IC50 regarding glucose induced ATP increase (GLUT1 inhibition)
PROPERTY: pIC50
A value of pIC50 is the negative decimal logarithm of a concentration given in moles per litre.

Examples with their reported pIC50 follow.
> print(dat)
                                   compound  test.value
1  CCc1c(NC(=O)c2cc(C(N)=O)nc3cc(F)ccc23)cnn1Cc1ccc(C#N)cc1 [Example 30]        7.34
2  Cc1c(NC(=O)c2cc(C(N)=O)nc3ccccc23)cnn1Cc1ccccc1C#N [Example 15]        6.12
3  CCc1noc(Cn2ncc(NC(=O)c3cc(C(F)(F)F)nc4ccc(Br)cc34)c2C)n1 [Example 35]        5.92

Now for the compound whose pIC50 we want.
For record Cc1c(NC(=O)c2cc(C(N)=O)nc3ccccc23)cnn1Cc1ccncc1 [Example 29] the listed pIC50 is 5.67
